# assayed-system: Full length human TBK1 (Homo sapiens, UniProt Q9UHD2)
# Construct: Full length human TBK1 with an N-terminal His-tag; His-tag (N); made in house; host or cells: Sf9 insect cells (baculovirus, pFastBac1)
# Sequence (Q9UHD2 1-729): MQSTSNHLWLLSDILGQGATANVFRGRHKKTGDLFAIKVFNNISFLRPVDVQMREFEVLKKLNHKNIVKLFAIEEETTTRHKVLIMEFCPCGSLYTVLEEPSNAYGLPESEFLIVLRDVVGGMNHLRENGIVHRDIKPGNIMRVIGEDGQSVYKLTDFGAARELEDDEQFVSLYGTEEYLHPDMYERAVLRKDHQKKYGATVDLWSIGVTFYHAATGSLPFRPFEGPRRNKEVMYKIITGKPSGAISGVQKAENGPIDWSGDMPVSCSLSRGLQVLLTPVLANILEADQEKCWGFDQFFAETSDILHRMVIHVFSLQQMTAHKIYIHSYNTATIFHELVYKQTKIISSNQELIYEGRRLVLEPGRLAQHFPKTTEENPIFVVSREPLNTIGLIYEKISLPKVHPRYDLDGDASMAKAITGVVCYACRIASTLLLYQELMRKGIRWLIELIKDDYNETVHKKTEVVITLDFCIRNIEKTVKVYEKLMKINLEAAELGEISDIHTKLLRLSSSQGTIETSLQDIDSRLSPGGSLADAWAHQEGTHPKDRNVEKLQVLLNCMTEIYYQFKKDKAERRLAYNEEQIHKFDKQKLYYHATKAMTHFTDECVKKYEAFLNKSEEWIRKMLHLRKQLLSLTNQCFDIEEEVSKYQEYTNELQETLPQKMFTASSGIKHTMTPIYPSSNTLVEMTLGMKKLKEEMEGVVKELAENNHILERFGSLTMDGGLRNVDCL
# test-details: Inhibition of TBK1 Enzyme (Caliper microfluidic assay)
# Type: biochemical
# condition-parameters: 25 μM ATP, 60 min at RT; -log(IC50), IC50 molar; read-out: TBK1 Inhibition (pIC50) (converted)
readout: IC50 (nM)

Example molecules with recorded IC50:
- molecule: "O=C(NCC(F)F)c1ccn(-c2ccc3nc(NC(=O)C4CC4)cn3n2)n1"
  numeric-readout: 794
- molecule: "O=C(NC1CCOC1=O)c1nc(-c2ccc3nc(NC(=O)C4CC4)cn3c2)cs1 (centres unmarked)"
  numeric-readout: 200
- molecule: "O=C(NCC(F)(F)F)c1ccn(-c2cn3cc(NC(=O)C4CC4)nc3cn2)n1"
  numeric-readout: 10
- molecule: "CN(CC(F)(F)F)C(=O)c1cc(-c2ccc3nc(NC(=O)C4CC4)cn3c2)cs1"
  numeric-readout: 12.6

1. O=C(N[C@@H]1CCCOC1)c1cc(-c2ccc3nc(NC(=O)C4CC4)cn3c2)cs1
2. COC1CCN(C(=O)c2cc(-c3ccc4nc(NC(=O)C5CC5)cn4c3)cs2)CC1
3. O=C(Nc1cn2cc(-n3ccc(C(=O)N(CCO)CC(F)(F)F)n3)ncc2n1)C1CC1
4. Cn1nc(-c2ccc3nc(NC(=O)C4CC4)cn3c2)cc1C(=O)NCC(F)(F)F
Rank order required: IC50, descending. List labels; respect the requested ordering.
2, 4, 1, 3
(2: 794 nM, 4: 251 nM, 1: 100 nM, 3: 5.01 nM)

----------
# assayed-system: Full length human TBK1 (Homo sapiens)
# Construct: Full length human TBK1 with an N-terminal His-tag; His-tag (N); made in house; host or cells: Sf9 insect cells (baculovirus, pFastBac1)
# test-details: Inhibition of TBK1 Enzyme (Caliper microfluidic assay)
# Assay type: biochemical
# condition-parameters: 25 μM ATP, 60 min at RT; -log(IC50), IC50 molar; read-out: TBK1 Inhibition (pIC50) (converted)
readout: IC50 (nM)

P. COCC(=O)Nc1cn2cc(-c3csc(C(=O)NCC(F)(F)F)c3)ccc2n1
Q. Cn1nc(-c2ccc3nc(NC(=O)C4CC4)cn3c2)cc1C(=O)NCC(F)F
R. CC(F)(F)CNC(=O)c1cc(-c2ccc3nc(NC(=O)C4CC4)cn3c2)cs1 [Example 3]
S. O=C(Nc1cn2cc(-c3csc(C(=O)N4CCCC4CO)n3)ccc2n1)C1CC1 (centres unmarked)
Ascending by IC50, please: list the compounds accordingly. The reply should contain the labels ordered as requested.
R, P, S, Q
(R: 5.01 nM, P: 39.8 nM, S: 158 nM, Q: 316 nM)

I. O=C(Nc1cn2cc(-c3csc(C(=O)N4CCC[C@@H]4C(F)(F)F)c3)ccc2n1)C1CC1
II. O=C(Nc1cn2cc(-c3csc(C(=O)N4CC(CO)C4)n3)ccc2n1)C1CC1
Smaller IC50 value, I vs II ? Provide the label of your selected option as the answer.
I

I. O=C(NCC1CCOC1)c1cc(-c2ccc3nc(NC(=O)C4CC4)cn3c2)cs1 (centres unmarked)
II. N#CC1CN(C(=O)c2nc(-c3ccc4nc(NC(=O)C5CC5)cn4c3)cs2)C1
III. O=C(NC1COC1)c1nc(-c2ccc3nc(NC(=O)C4CC4)cn3c2)cs1
Give the ascending ranking of the items by reported IC50. Please write the labels in the order that was asked for.
I, III, II

a. O=C(NC1CCCC1(F)F)c1nc(-c2ccc3nc(NC(=O)C4CC4)cn3c2)cs1 (centres unmarked)
b. O=C(NCC(F)F)c1nc(-c2ccc3nc(NC(=O)C4CC4)cn3n2)cs1
c. C[C@H](NC(=O)c1cc(-c2ccc3nc(NC(=O)C4CC4)cn3c2)cs1)C(F)(F)F
d. O=C(Nc1cn2cc(-c3csc(C(=O)N4CCCC4C(F)(F)F)c3)ccc2n1)C1CC1 (centres unmarked)
Rank items: key IC50, increasing. Write the labels, ordered according to the request.
d, a, c, b

1. O=C(NCC(F)(F)F)c1cnn(-c2ccc3nc(NC(=O)C4CC4)cn3c2)c1
2. O=C(NC1CCCC1=O)c1nc(-c2ccc3nc(NC(=O)C4CC4)cn3c2)cs1 (centres unmarked)
3. O=C(NC1COCC1O)c1nc(-c2ccc3nc(NC(=O)C4CC4)cn3c2)cs1 (centres unmarked)
Rank ascending by IC50. Output the labels ranked as instructed.
1, 3, 2
(1: 31.6 nM, 3: 63.1 nM, 2: 200 nM)

Data credit: patent US9598424B2
